# Tested on: HIV-1 NL4-3 E138K mutant
# Assay type: cell-based
# measurement_parameters: TZM-bl cells; versus NL4-3(wt)
observable: Resistance fold change E138K
Numbers only.

N#C/C=C/c1cc(Br)c(Oc2ccc(N)c(Nc3ccc(C#N)cc3)n2)c(Br)c1 12.4

Could you report Resistance fold change E138K for every entry in the following list?
1. N#Cc1ccc(Nc2nc(Oc3c(Br)cc(C#N)cc3Br)ccc2N)cc1
2. N#Cc1ccc(Nc2nc(Oc3c(F)cccc3F)ccc2N)cc1
3. COc1cc(/C=C/C#N)cc(Br)c1Oc1ccc(N)c(Nc2ccc(C#N)cc2)n1
4. N#C/C=C/c1cc(F)c(Oc2ccc(N)c(Nc3ccc(C#N)cc3)n2)c(F)c1

Result:
5.8
4.3
2.1
10.3
